Exercise: for every item that follows, state its recorded Inhibition of binding (%).
Target Or System: T1, hCMV gH, gL, UL128, UL130 and UL131A co-expressed in HEK293T cells (human cytomegalovirus, UniProt P12824 24-743; P16832 31-278; P16837 1-171; P16772 1-214)
T1 construct: whole, on cells; also called gH + gL + UL128 + UL130 + UL131A; gH/gL/UL128-130 complex
Measurement Notes: cell cross-competition, 20x excess; competitor 10F7-biotin
// note: answer is a bare numeric in %

### Prompt Quick one: Inhibition of binding (%) of 10F7 (antibody, V domains shown, human IgG mAb; also called 10F7-biotin) VH: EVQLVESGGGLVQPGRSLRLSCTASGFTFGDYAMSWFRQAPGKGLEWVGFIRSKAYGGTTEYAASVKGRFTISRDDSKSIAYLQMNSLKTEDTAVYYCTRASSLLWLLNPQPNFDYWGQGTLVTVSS VL: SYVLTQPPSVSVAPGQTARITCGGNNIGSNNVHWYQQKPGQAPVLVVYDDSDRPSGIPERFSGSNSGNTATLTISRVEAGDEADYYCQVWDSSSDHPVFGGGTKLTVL ?
### Response 100

### Prompt Consider the binder 2C12 (antibody, V domains shown, human IgG mAb; also called 2C12-biotin) VH: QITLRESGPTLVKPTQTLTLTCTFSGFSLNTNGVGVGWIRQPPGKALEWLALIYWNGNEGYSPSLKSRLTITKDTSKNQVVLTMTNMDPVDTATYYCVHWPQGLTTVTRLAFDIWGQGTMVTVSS VL: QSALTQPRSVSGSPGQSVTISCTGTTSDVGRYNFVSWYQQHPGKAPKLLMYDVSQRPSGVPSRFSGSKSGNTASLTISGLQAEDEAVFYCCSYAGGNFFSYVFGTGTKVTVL and give its measured Inhibition of binding (%).
### Response 0
